Reference source for all entries: patent US11352350B2

molecular target: IRAK4 (Homo sapiens (Human), UniProt Q9NWZ3); assay: IRAK4 MSD degradation in OCI-LY10; assay type: cell-based; conditions: OCI-LY10, 24 hrs, MSD; read-out: IRAK4 MSD degradation in OCI-LY10 at 24 hrs: Average external-Abs DC50
Sequence (Q9NWZ3 whole entry): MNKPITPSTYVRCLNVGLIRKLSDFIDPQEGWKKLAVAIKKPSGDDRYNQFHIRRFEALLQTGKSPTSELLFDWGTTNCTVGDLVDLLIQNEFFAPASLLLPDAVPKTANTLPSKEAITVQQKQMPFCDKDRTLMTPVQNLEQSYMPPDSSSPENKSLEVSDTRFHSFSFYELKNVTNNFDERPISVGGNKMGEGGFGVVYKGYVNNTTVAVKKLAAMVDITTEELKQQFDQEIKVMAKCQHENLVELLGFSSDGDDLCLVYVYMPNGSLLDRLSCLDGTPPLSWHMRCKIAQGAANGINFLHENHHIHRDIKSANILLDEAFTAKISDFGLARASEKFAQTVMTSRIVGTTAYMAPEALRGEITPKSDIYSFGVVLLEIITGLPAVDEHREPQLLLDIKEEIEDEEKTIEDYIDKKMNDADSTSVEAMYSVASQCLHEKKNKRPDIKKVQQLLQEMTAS
Quick reference for DC50 among some compounds

See these solved cases before continuing.
compound: CN(CC1CCN(Cc2ccc3c(c2)n(C)c(=O)n3C2CCC(=O)NC2=O)CC1)C[C@H]1CC[C@H](n2cc(NC(=O)c3coc(-c4ccnc(NCC5CC5)c4)n3)c(C(F)F)n2)CC1 (some centres unmarked) [I-127]
readout: DC50
measurement: < 10 nM

compound: Cc1ccc(-n2nc(C3CCN(C(=O)CCCCOCCCc4cccc5c4n(C)c(=O)n5C4CCC(=O)NC4=O)CC3)cc2NC(=O)c2cnn3cccnc23)nc1 (centres unmarked) [I-160]
readout: DC50
measurement: > 1000 nM

compound: CN(CCOCCOCCOC12CC3CC(CC(C3)C1)C2)C[C@H]1CC[C@H](n2cc(NC(=O)c3coc(-c4ccnc(NCC5CC5)c4)n3)c(C(F)F)n2)CC1 [I-174]
readout: DC50
measurement: > 1000 nM

compound: Cn1c(=O)n([C@H]2CCC(=O)NC2=O)c2cccc(CCCOC3CCN(CC4CCC(n5cc(NC(=O)c6cnn7ccc(N8CCOCC8)nc67)c(C(F)F)n5)CC4)CC3)c21 (some centres unmarked) [I-257]
readout: DC50
measurement: < 10 nM

compound: O=C1CCC(N2C(=O)c3cccc(NCCCOC[C@@H]4CN(Cc5ccc(-n6cc(NC(=O)c7coc(-c8ccnc(NCC9CC9)c8)n7)c(C(F)F)n6)cc5)CCO4)c3C2=O)C(=O)N1 (some centres unmarked) [I-393]
readout: DC50
measurement: 10 to 100 nM

# returns recorded DC50 (system: IRAK4 (Homo sapiens (Human), UniProt Q9NWZ3)) for Cn1c(=O)n(C2CCC(=O)NC2=O)c2cccc(CCCOCCOCCNC(=O)[C@H]3CC[C@@H](n4cc(NC(=O)c5coc(-c6ccnc(NCC7CC7)c6)n5)c(C(F)F)n4)CC3)c21 (some centres unmarked) [I-15]
10 to 100 nM

# returns recorded DC50 (system: IRAK4 (Homo sapiens (Human), UniProt Q9NWZ3)) for COc1cc(C(=O)NCCCCCCN(C)C(=O)[C@H]2CC[C@H](n3cc(NC(=O)c4coc(-c5ccnc(NCC6CC6)c5)n4)c(C(F)F)n3)CC2)ccc1NC(=O)[C@@H]1N[C@@H](CC(C)(C)C)[C@](C#N)(c2ccc(Cl)cc2F)[C@H]1c1cccc(Cl)c1F [I-143]
> 1000 nM

# returns recorded DC50 (system: IRAK4 (Homo sapiens (Human), UniProt Q9NWZ3)) for Cn1c(=O)n(C2CCC(=O)NC2=O)c2ccc(CCCOCCC(=O)N3CCN([C@H]4CC[C@H](Nc5ncnc6[nH]cc(C7CCOCC7)c56)CC4)CC3)cc21 (some centres unmarked) [I-21]
> 1000 nM

# returns recorded DC50 (system: IRAK4 (Homo sapiens (Human), UniProt Q9NWZ3)) for CC[C@@H]1[C@H](F)C(=O)N[C@@H]1COc1ncc(C#C[C@H]2CC[C@@H](CN(C)CCCOCCCc3ccc4c(c3)n(C)c(=O)n4C3CCC(=O)NC3=O)CC2)c2cc(C(N)=O)c(OC)cc12 (some centres unmarked) [I-230]
100 to 1000 nM

# returns recorded DC50 (system: IRAK4 (Homo sapiens (Human), UniProt Q9NWZ3)) for O=C1CCC(N2Cc3c(OCc4ccc(CN5CCN(C[C@H]6CC[C@H](n7cc(NC(=O)c8cnn9ccc(N%10CCOCC%10)nc89)c(C(F)F)n7)CC6)CC5)cc4)cccc3C2=O)C(=O)N1 (some centres unmarked) [I-377]
< 10 nM

# returns recorded DC50 (system: IRAK4 (Homo sapiens (Human), UniProt Q9NWZ3)) for Cn1c(=O)n(C2CCC(=O)NC2=O)c2cccc(CCCOC3CCN([C@H]4CC[C@@H](Nc5ncnc6ccc(C#N)cc56)CC4)CC3)c21 (some centres unmarked) [I-305]
> 1000 nM

====

biological target: IRAK4 (Homo sapiens (Human)); assay: IRAK4 MSD degradation in OCI-LY10; format: cell-based; settings: OCI-LY10, 4 hrs; read-out: IRAK4 MSD degradation in OCI-LY10 at 4 hrs: DC50
readout: DC50

compound: O=C1CCC(n2c3cccc(C#CCOC4CCN(C[C@H]5CC[C@H](n6cc(NC(=O)c7cnn8ccc(N9C[C@H]%10C[C@@H]9CO%10)nc78)c(C(F)F)n6)CC5)CC4)c3c3cccnc32)C(=O)N1 (some centres unmarked)
readout: DC50
measurement: 10 to 100 nM

Fill in the blank: the reported DC50 of C[C@@H]1CN(c2ccn3ncc(C(=O)Nc4cn([C@H]5CC[C@H](CN6CCC(OCC#Cc7cccc8c7n(C)c(=O)n8C7CCC(=O)NC7=O)CC6)CC5)nc4C(F)F)c3n2)C[C@H](C)O1 (some centres unmarked) is ____.
10 to 100 nM

Fill in the blank: the reported DC50 of C[C@H](CCc1cccc2c1n(C)c(=O)n2C1CCC(=O)NC1=O)OC1CCN(C[C@H]2CC[C@H](n3cc(NC(=O)c4cnn5ccc(N6C[C@H]7C[C@@H]6CO7)nc45)c(C(F)F)n3)CC2)CC1 (some centres unmarked) is ____.
< 10 nM

Fill in the blank: the reported DC50 of CN(CC1CCC(n2cc(NC(=O)c3cnn4ccc(C5CCOCC5)nc34)c(C(F)F)n2)CC1)[C@H]1CC[C@H](Nc2cccc3c2C(=O)N(C2CCC(=O)NC2=O)C3=O)CC1 (some centres unmarked) is ____.
100 to 1000 nM

Fill in the blank: the reported DC50 of CN(Cc1ccc(-n2cc(NC(=O)c3cnn4ccc(N5CCOCC5)nc34)c(C(F)F)n2)cc1)[C@H]1CC[C@H](Nc2cccc3c2C(=O)N(C2CCC(=O)NC2=O)C3=O)CC1 (some centres unmarked) is ____.
10 to 100 nM

====

test system: OCI-LY10; assay: CTG Cell Viability Assay - OCI-LY10; format: cell-based, human; settings: Homo sapiens, OCI-Ly10, 96 h, OCI-LY10, 4 days; read-out: CTG Cell Viability Assay - OCI-LY10: Average external-IC50
readout: IC50

See these solved cases before continuing.
compound: O=C1CCC(N2C(=O)c3cccc(N4CCC(CCCN5CCC(n6cc(NC(=O)c7cnn8ccc(N9CCOCC9)nc78)c(C(F)F)n6)CC5)CC4)c3C2=O)C(=O)N1 (centres unmarked)
measurement: > 1000 nM

compound: CC(C)(O)c1cc2nn([C@H]3CC[C@H](CN4CCC5(CC4)CC(Nc4cccc6c4C(=O)N(C4CCC(=O)NC4=O)C6=O)C5)CC3)cc2cc1NC(=O)c1cccc(C(F)(F)F)n1 (some centres unmarked)
measurement: < 50 nM

Fill in the blank: the reported IC50 of Cn1c(=O)n(C2CCC(=O)NC2=O)c2cccc(C#CCCCOCc3ccc(-n4cc(NC(=O)c5cnn6ccc(N7C[C@H]8C[C@@H]7CO8)nc56)c(C(F)F)n4)cc3)c21 (some centres unmarked) is ____.
> 1000 nM

Fill in the blank: the reported IC50 of Cn1c(=O)n(C2CCC(=O)NC2=O)c2cccc(CC3CC4(CCN(C(=O)c5ccc(-n6cc(NC(=O)c7cnn8ccc(N9C[C@H]%10C[C@@H]9CO%10)nc78)c(C(F)F)n6)cc5)CC4)C3)c21 (some centres unmarked) is ____.
> 1000 nM

Fill in the blank: the reported IC50 of Cc1c[nH]c2ncnc(N[C@H]3CC[C@H](N4CCN(C(=O)CCOCCCc5ccc6c(c5)n(C)c(=O)n6C5CCC(=O)NC5=O)CC4)CC3)c12 (some centres unmarked) is ____.
> 1000 nM

Fill in the blank: the reported IC50 of CN1C(=O)C(C2CCC(=O)NC2=O)c2cccc(CCCOC3CCN(C[C@H]4CC[C@H](n5cc(NC(=O)c6cnn7ccc(N8CC(O)C8)nc67)c(C(F)F)n5)CC4)CC3)c21 (some centres unmarked) is ____.
> 1000 nM

Fill in the blank: the reported IC50 of Cn1c(=O)n(C2CCC(=O)NC2=O)c2cccc(CN3CCC4(CC3)CCN(C[C@H]3CC[C@H](n5cc(NC(=O)c6coc(-c7ccnc(NCC8CC8)c7)n6)c(C(F)F)n5)CC3)CC4)c21 (some centres unmarked) is ____.
< 50 nM

Fill in the blank: the reported IC50 of CN(CCCCCCCNC(=O)c1ccc(CNCc2ccc(-c3ccc4c(cnn4CC4CC4)c3)cc2)cc1)C[C@H]1CC[C@H](n2cc(NC(=O)c3coc(-c4ccnc(NCC5CC5)c4)n3)c(C(F)F)n2)CC1 is ____.
> 1000 nM

Fill in the blank: the reported IC50 of CN(C[C@@H]1CN(CCCc2ccc3c(c2)n(C)c(=O)n3C2CCC(=O)NC2=O)CCO1)C(=O)[C@H]1CC[C@H](n2cc(NC(=O)c3coc(-c4ccnc(NCC5CC5)c4)n3)c(C(F)F)n2)CC1 (some centres unmarked) is ____.
100 to 500 nM

Fill in the blank: the reported IC50 of NC[C@H]1CC[C@H](n2cc(NC(=O)c3coc(-c4ccnc(NCC5CC5)c4)n3)c(C(F)F)n2)CC1 is ____.
> 1000 nM

Fill in the blank: the reported IC50 of O=C1CCC(N2C(=O)c3cccc(NCCCOC4CCN(C[C@H]5CC[C@H](n6cc(NC(=O)c7cnn8ccc(N9C[C@H]%10C[C@@H]9CO%10)nc78)c(C(F)F)n6)CC5)CC4)c3C2=O)C(=O)N1 (some centres unmarked) is ____.
50 to 100 nM
